Target: T1, human plasma Kallikrein (human, UniProt P03952 20-638, limits assumed)
T1 construct: also called hPK; human PK
T1 sequence (P03952 20-638 limits assumed): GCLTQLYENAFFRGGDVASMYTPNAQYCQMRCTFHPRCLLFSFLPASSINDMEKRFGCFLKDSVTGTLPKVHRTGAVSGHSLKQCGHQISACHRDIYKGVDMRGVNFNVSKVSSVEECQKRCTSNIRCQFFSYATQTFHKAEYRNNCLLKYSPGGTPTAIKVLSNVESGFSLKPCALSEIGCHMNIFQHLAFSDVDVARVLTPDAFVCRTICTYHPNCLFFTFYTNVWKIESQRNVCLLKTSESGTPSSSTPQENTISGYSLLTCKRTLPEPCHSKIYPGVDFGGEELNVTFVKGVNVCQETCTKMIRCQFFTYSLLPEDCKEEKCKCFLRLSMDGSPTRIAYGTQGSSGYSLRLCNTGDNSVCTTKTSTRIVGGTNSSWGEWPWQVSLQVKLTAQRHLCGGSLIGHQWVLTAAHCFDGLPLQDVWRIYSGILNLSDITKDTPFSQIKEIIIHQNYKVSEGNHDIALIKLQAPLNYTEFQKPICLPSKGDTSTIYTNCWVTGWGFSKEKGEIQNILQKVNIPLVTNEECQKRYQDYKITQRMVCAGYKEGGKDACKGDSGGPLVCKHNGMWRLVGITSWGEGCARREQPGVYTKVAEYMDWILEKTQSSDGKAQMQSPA
Assay: enzyme inhibition assay
Numbered stars: 1 amine (or outer) side, 2 acyl side, 3 side chain; on linkers, the order of the positions; unused ones are H or OH. Bridge positions count the residues as written; N and C are the ends. Square brackets hold non-standard residues; d marks the D form. Tpi = O=C(O)[C@@H]1Cc2c([nH]c3ccccc23)CN1; TBMB = c1c(C[*:1])cc(C[*:3])cc1C[*:2]; Aze = O=C(O)[C@@H]1CCN1
Listing: Ki of selected binders
Number only, in nM; omit the unit.

Some solved entries appear below for comparison.
BINDER: Ac-CSW[Tpi]ARCLHQDLC-NH2 (linker 1-7-13 via TBMB; SMILES CC(=O)N[C@H]1CSCc2cc3cc(c2)CSC[C@H](NC(=O)[C@H](CCCNC(=N)N)NC(=O)[C@H](C)NC(=O)[C@@H]2Cc4c([nH]c5ccccc45)CN2C(=O)[C@H](Cc2c[nH]c4ccccc24)NC(=O)[C@H](CO)NC1=O)C(=O)N[C@@H](CC(C)C)C(=O)N[C@@H](Cc1c[nH]cn1)C(=O)N[C@@H](CCC(N)=O)C(=O)N[C@@H](CC(=O)O)C(=O)N[C@@H](CC(C)C)C(=O)N[C@H](C(N)=O)CSC3) [Ac-(06-34-18) NorHar3]
Ki / nM: 2.99
//
BINDER: Ac-CSWPARCLHQDLC-NH2 (linker 1-7-13 via TBMB; SMILES CC(=O)N[C@H]1CSCc2cc3cc(c2)CSC[C@H](NC(=O)[C@H](CCCNC(=N)N)NC(=O)[C@H](C)NC(=O)[C@@H]2CCCN2C(=O)[C@H](Cc2c[nH]c4ccccc24)NC(=O)[C@H](CO)NC1=O)C(=O)N[C@@H](CC(C)C)C(=O)N[C@@H](Cc1c[nH]cn1)C(=O)N[C@@H](CCC(N)=O)C(=O)N[C@@H](CC(=O)O)C(=O)N[C@@H](CC(C)C)C(=O)N[C@H](C(N)=O)CSC3, also called Ac-(06-34-18) wildtype; Ac-(06-34-18) WPAR) [Ac-06-34-18(TMB)-NH2]
Ki / nM: 0.17

What value of Ki has been reported for the following binder? Ac-CSW[Aze]ARCLHQDLC-NH2 (linker 1-7-13 via TBMB; SMILES CC(=O)N[C@H]1CSCc2cc3cc(c2)CSC[C@H](NC(=O)[C@H](CCCNC(=N)N)NC(=O)[C@H](C)NC(=O)[C@@H]2CCN2C(=O)[C@H](Cc2c[nH]c4ccccc24)NC(=O)[C@H](CO)NC1=O)C(=O)N[C@@H](CC(C)C)C(=O)N[C@@H](Cc1c[nH]cn1)C(=O)N[C@@H](CCC(N)=O)C(=O)N[C@@H](CC(=O)O)C(=O)N[C@@H](CC(C)C)C(=O)N[C@H](C(N)=O)CSC3, also called Ac-06-34-18(TMB)-NH2 Aze3) [Ac-(06-34-18) Aze3] 0.06
